experimental_system: UniProt:P13945
Sequence (P13945 whole entry): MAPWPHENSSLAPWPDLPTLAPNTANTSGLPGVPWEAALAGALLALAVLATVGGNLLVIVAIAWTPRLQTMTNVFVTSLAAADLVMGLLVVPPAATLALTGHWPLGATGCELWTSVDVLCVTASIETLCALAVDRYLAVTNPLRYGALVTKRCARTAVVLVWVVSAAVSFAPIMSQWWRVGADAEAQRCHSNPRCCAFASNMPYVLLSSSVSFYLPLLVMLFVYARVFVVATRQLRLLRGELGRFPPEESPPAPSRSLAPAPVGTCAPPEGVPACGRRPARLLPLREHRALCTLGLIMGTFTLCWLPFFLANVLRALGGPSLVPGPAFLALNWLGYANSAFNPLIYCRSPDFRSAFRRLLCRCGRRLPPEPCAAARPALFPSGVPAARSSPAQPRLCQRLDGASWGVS
assay_explanation: Effective concentration to stimulate cAMP production in chinese hamster ovary cells expressing cloned human beta-3-adrenergic receptor
Threshold 10 nM. EC50 below it: fulfilled. EC50 at it or above: not fulfilled.

>  <structure_as_smiles>
O=S(=O)(Nc1ccc(CCNC[C@H](O)c2ccccc2)cc1)c1ccc(Cc2nc(Cc3ccc(F)cc3)cs2)cc1

>  <label_value>
fulfilled

$$$$
>  <structure_as_smiles>
O=S(=O)(Nc1ccc(CCNC[C@H](O)c2ccccc2)cc1)c1ccc(Cc2nc(-c3ccc4ccccc4c3)cs2)cc1

>  <label_value>
fulfilled

$$$$
>  <structure_as_smiles>
O=S(=O)(Nc1ccc(CCNC[C@H](O)c2ccccc2)cc1)c1ccc(Cc2nc(Cc3ccc4ccccc4c3)cs2)cc1

>  <label_value>
not fulfilled

$$$$
>  <structure_as_smiles>
CC(=O)Nc1ccc(-c2csc(Cc3ccc(S(=O)(=O)Nc4ccc(CCNC[C@H](O)c5ccccc5)cc4)cc3)n2)cc1

>  <label_value>
not fulfilled

$$$$
>  <structure_as_smiles>
CC/C=C/CC/C=C/c1csc(Cc2ccc(S(=O)(=O)Nc3ccc(CCNC[C@H](O)c4ccccc4)cc3)cc2)n1

>  <label_value>
not fulfilled

$$$$
>  <structure_as_smiles>
O=S(=O)(Nc1ccc(CCNC[C@H](O)c2ccccc2)cc1)c1ccc(CCc2nc(Cc3ccc4ccccc4c3)cs2)cc1

>  <label_value>
not fulfilled

$$$$
